Assayed system: T1, CAPRIN-1 protein expressed on the membrane surface of human cancer cells (human, UniProt Q14444 2-709)
T1 sequence (looked up): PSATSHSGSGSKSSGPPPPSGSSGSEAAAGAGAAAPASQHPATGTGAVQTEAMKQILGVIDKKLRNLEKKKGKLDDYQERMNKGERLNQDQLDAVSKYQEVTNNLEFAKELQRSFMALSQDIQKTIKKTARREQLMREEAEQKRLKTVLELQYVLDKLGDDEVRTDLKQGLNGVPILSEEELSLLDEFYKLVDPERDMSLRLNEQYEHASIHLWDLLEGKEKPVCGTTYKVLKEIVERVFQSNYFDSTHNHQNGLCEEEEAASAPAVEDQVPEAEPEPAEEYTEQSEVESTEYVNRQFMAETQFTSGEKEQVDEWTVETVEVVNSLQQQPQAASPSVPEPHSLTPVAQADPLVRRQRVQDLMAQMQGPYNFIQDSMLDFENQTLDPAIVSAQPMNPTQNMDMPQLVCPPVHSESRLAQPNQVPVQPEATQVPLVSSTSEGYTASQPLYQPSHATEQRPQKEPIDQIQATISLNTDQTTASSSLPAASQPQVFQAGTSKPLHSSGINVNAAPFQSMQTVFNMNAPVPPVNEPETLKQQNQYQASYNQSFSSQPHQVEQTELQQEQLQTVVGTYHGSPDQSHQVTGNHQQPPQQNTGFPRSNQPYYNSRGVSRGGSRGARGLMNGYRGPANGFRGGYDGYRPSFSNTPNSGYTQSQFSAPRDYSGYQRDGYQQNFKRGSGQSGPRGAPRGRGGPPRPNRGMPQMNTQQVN
Measurement notes: cell-based or functional assay
Assay readout: ADCC cytotoxic activity (51Cr release) on Ramos

[in] Any idea what its ADCC cytotoxic activity (51Cr release) on Ramos is? The binder is humanized antibody #9 (antibody, V domains shown) VH: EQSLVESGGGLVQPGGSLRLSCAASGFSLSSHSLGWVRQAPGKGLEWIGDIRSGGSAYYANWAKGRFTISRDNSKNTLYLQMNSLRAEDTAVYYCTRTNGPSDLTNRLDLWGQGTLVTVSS VL: DIVLTQSPSSLSASVGDRVTINCQASQSLYNNENLAWFQQKPGKVPKRLIYGASTLASGVSSRFSGSGSGTEFTLTISSLQCEDFAIYYCLGEFSCGSADCFAFGGGTKVEIK
[out] ≥ 15%

[in] Any idea what its ADCC cytotoxic activity (51Cr release) on Ramos is? The binder is humanized antibody #6 (antibody, V domains shown) VH: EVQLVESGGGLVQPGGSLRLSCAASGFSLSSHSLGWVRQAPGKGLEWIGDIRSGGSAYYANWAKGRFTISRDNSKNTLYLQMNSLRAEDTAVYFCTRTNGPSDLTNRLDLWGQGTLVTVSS VL: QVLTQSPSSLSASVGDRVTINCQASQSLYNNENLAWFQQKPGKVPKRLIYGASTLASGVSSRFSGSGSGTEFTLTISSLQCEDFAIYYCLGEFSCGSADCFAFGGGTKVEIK
[out] ≥ 20%

[in] Any idea what its ADCC cytotoxic activity (51Cr release) on Ramos is? The binder is humanized antibody #3 (antibody, V domains shown) VH: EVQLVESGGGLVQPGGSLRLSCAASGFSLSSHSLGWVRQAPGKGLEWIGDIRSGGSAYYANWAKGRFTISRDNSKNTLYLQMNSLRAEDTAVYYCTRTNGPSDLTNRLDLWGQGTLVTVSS VL: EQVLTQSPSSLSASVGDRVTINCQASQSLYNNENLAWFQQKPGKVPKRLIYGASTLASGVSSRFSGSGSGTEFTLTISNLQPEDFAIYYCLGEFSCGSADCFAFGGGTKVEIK
[out] ≥ 18%
